test: Pharmacokinetics in Sprague–Dawley rats; format: in vivo; conditions: Sprague-Dawley, rat, plasma, iv, 1 mg/kg
Documented clearance across a set of molecules
recordedMetric: clearance (mL/min/kg)

INSERT INTO results (molecule, recordedmetric, unitssymbol, observedvalue) VALUES
  ('Cn1cc(-c2cc(N3CCCCS3(=O)=O)ccc2Oc2ccc(F)cc2F)c2c(F)c[nH]c2c1=O', 'clearance', 'mL/min/kg', 27.2),
  ('Cn1cc(-c2cc(N3CCCS3(=O)=O)ccc2Oc2ccc(F)cc2F)c2c(F)c[nH]c2c1=O', 'clearance', 'mL/min/kg', 33.2),
  ('CCNC(=O)c1cc2c(-c3cc(N4CCCCS4(=O)=O)ccc3Oc3ccc(F)cc3F)cn(C)c(=O)c2[nH]1', 'clearance', 'mL/min/kg', 77.6),
  ('CCNC(=O)c1cc2c(-c3cc(N4CCCS4(=O)=O)ccc3Oc3ccc(F)cc3F)cn(C)c(=O)c2[nH]1', 'clearance', 'mL/min/kg', 61.5),
  ('CCS(=O)(=O)Nc1ccc(Oc2ccc(F)cc2F)c(-c2cn(C)c(=O)c3[nH]ccc23)c1 [Compound 2, reference compound]', 'clearance', 'mL/min/kg', 17.6);

###

experiment: Pharmacokinetics in Sprague–Dawley rats; assay type: in vivo; conditions: Sprague-Dawley, rat, plasma, po, 3 mg/kg
recordedMetric: Cmax (ng/mL)

INSERT INTO measurements (molecule, observedvalue) VALUES
  ('Cn1cc(-c2cc(N3CCCS3(=O)=O)ccc2Oc2ccc(F)cc2F)c2c(F)c[nH]c2c1=O [Compound 24]', 474),
  ('CCS(=O)(=O)Nc1ccc(Oc2ccc(F)cc2F)c(-c2cn(C)c(=O)c3[nH]ccc23)c1 [Compound 2, reference compound]', 401),
  ('CCNC(=O)c1cc2c(-c3cc(N4CCCCS4(=O)=O)ccc3Oc3ccc(F)cc3F)cn(C)c(=O)c2[nH]1 [Compound 31]', 15.5),
  ('CCNC(=O)c1cc2c(-c3cc(N4CCCS4(=O)=O)ccc3Oc3ccc(F)cc3F)cn(C)c(=O)c2[nH]1 [Compound 30]', 15.2),
  ('Cn1cc(-c2cc(N3CCCCS3(=O)=O)ccc2Oc2ccc(F)cc2F)c2c(F)c[nH]c2c1=O [Compound 25]', 503);

###

assay: Pharmacokinetics in Sprague–Dawley rats; type: in vivo; conditions: rat, i.v. 1 mg/kg
recordedMetric: Vss_obs (L/kg)

INSERT INTO measurements (compound, recordedmetric, unitssymbol, observedvalue) VALUES
  ('CCNC(=O)c1cc2c(-c3cc(N4CCCCS4(=O)=O)ccc3Oc3ccc(F)cc3F)cn(C)c(=O)c2[nH]1', 'Vss_obs', 'L/kg', 3.512),
  ('Cn1cc(-c2cc(N3CCCCS3(=O)=O)ccc2Oc2ccc(F)cc2F)c2c(F)c[nH]c2c1=O', 'Vss_obs', 'L/kg', 1.258),
  ('CCNC(=O)c1cc2c(-c3cc(N4CCCS4(=O)=O)ccc3Oc3ccc(F)cc3F)cn(C)c(=O)c2[nH]1', 'Vss_obs', 'L/kg', 2.891),
  ('Cn1cc(-c2cc(N3CCCS3(=O)=O)ccc2Oc2ccc(F)cc2F)c2c(F)c[nH]c2c1=O', 'Vss_obs', 'L/kg', 1.513),
  ('CCS(=O)(=O)Nc1ccc(Oc2ccc(F)cc2F)c(-c2cn(C)c(=O)c3[nH]ccc23)c1 [Compound 2, reference compound]', 'Vss_obs', 'L/kg', 2.772);

###

Documented AUC(0-inf) across a set of compounds
assay: Pharmacokinetics in Sprague–Dawley rats; assay type: in vivo; details: Sprague-Dawley, rat, plasma, iv, 1 mg/kg
recordedMetric: AUC(0-inf) (ng·h/mL)

INSERT INTO results (compound, recordedmetric, unitssymbol, observedvalue) VALUES
  ('CCNC(=O)c1cc2c(-c3cc(N4CCCCS4(=O)=O)ccc3Oc3ccc(F)cc3F)cn(C)c(=O)c2[nH]1 [Compound 31]', 'AUC(0-inf)', 'ng·h/mL', 217),
  ('Cn1cc(-c2cc(N3CCCCS3(=O)=O)ccc2Oc2ccc(F)cc2F)c2c(F)c[nH]c2c1=O [Compound 25]', 'AUC(0-inf)', 'ng·h/mL', 614),
  ('Cn1cc(-c2cc(N3CCCS3(=O)=O)ccc2Oc2ccc(F)cc2F)c2c(F)c[nH]c2c1=O [Compound 24]', 'AUC(0-inf)', 'ng·h/mL', 509),
  ('CCS(=O)(=O)Nc1ccc(Oc2ccc(F)cc2F)c(-c2cn(C)c(=O)c3[nH]ccc23)c1 [Compound 2, reference compound]', 'AUC(0-inf)', 'ng·h/mL', 1200),
  ('CCNC(=O)c1cc2c(-c3cc(N4CCCS4(=O)=O)ccc3Oc3ccc(F)cc3F)cn(C)c(=O)c2[nH]1 [Compound 30]', 'AUC(0-inf)', 'ng·h/mL', 278);

###

assay: Pharmacokinetics in Sprague–Dawley rats; format: in vivo; settings: Sprague-Dawley, rat, plasma, po, 3 mg/kg
Documented Tmax across a set of compounds
recordedMetric: Tmax (min)

INSERT INTO assay_data (compound, recordedmetric, unitssymbol, observedvalue) VALUES
  ('Cn1cc(-c2cc(N3CCCS3(=O)=O)ccc2Oc2ccc(F)cc2F)c2c(F)c[nH]c2c1=O', 'Tmax', 'min', 30),
  ('CCS(=O)(=O)Nc1ccc(Oc2ccc(F)cc2F)c(-c2cn(C)c(=O)c3[nH]ccc23)c1 [Compound 2, reference compound]', 'Tmax', 'min', 165),
  ('CCNC(=O)c1cc2c(-c3cc(N4CCCS4(=O)=O)ccc3Oc3ccc(F)cc3F)cn(C)c(=O)c2[nH]1', 'Tmax', 'min', 15),
  ('CCNC(=O)c1cc2c(-c3cc(N4CCCCS4(=O)=O)ccc3Oc3ccc(F)cc3F)cn(C)c(=O)c2[nH]1', 'Tmax', 'min', 19.8),
  ('Cn1cc(-c2cc(N3CCCCS3(=O)=O)ccc2Oc2ccc(F)cc2F)c2c(F)c[nH]c2c1=O', 'Tmax', 'min', 15);

###

Documented AUC(0-inf) across a set of compounds
experiment: Pharmacokinetics in Sprague–Dawley rats; assay type: in vivo; settings: Sprague-Dawley, rat, plasma, po, 3 mg/kg
recordedMetric: AUC(0-inf) (ng·h/mL)

INSERT INTO measurements (compound, observedvalue) VALUES
  ('CCNC(=O)c1cc2c(-c3cc(N4CCCS4(=O)=O)ccc3Oc3ccc(F)cc3F)cn(C)c(=O)c2[nH]1', 9.91),
  ('Cn1cc(-c2cc(N3CCCS3(=O)=O)ccc2Oc2ccc(F)cc2F)c2c(F)c[nH]c2c1=O', 473),
  ('CCS(=O)(=O)Nc1ccc(Oc2ccc(F)cc2F)c(-c2cn(C)c(=O)c3[nH]ccc23)c1 [Compound 2, reference compound]', 2050),
  ('CCNC(=O)c1cc2c(-c3cc(N4CCCCS4(=O)=O)ccc3Oc3ccc(F)cc3F)cn(C)c(=O)c2[nH]1', 22.1),
  ('Cn1cc(-c2cc(N3CCCCS3(=O)=O)ccc2Oc2ccc(F)cc2F)c2c(F)c[nH]c2c1=O', 406);

###

test: Pharmacokinetics in Sprague–Dawley rats; assay type: in vivo; conditions: Sprague-Dawley, rat, plasma, iv, 1 mg/kg
recordedMetric: MRT inf (min)

INSERT INTO measurements (compound, observedvalue) VALUES
  ('Cn1cc(-c2cc(N3CCCS3(=O)=O)ccc2Oc2ccc(F)cc2F)c2c(F)c[nH]c2c1=O [Compound 24]', 45.6),
  ('Cn1cc(-c2cc(N3CCCCS3(=O)=O)ccc2Oc2ccc(F)cc2F)c2c(F)c[nH]c2c1=O [Compound 25]', 46.2),
  ('CCNC(=O)c1cc2c(-c3cc(N4CCCCS4(=O)=O)ccc3Oc3ccc(F)cc3F)cn(C)c(=O)c2[nH]1 [Compound 31]', 34.2),
  ('CCS(=O)(=O)Nc1ccc(Oc2ccc(F)cc2F)c(-c2cn(C)c(=O)c3[nH]ccc23)c1 [Compound 2, reference compound]', 187),
  ('CCNC(=O)c1cc2c(-c3cc(N4CCCS4(=O)=O)ccc3Oc3ccc(F)cc3F)cn(C)c(=O)c2[nH]1 [Compound 30]', 47.6);

###

experiment: Pharmacokinetics in Sprague–Dawley rats; assay type: in vivo; conditions: Sprague-Dawley, rat, plasma, po, 3 mg/kg
recordedMetric: log10(AUC(0-t)) (log10 of the value in ng·h/mL)

INSERT INTO results (compound, recordedmetric, observedvalue) VALUES
  ('Cn1cc(-c2cc(N3CCCCS3(=O)=O)ccc2Oc2ccc(F)cc2F)c2c(F)c[nH]c2c1=O', 'log10(AUC(0-t))', 2.61),
  ('Cn1cc(-c2cc(N3CCCS3(=O)=O)ccc2Oc2ccc(F)cc2F)c2c(F)c[nH]c2c1=O', 'log10(AUC(0-t))', 2.67),
  ('CCNC(=O)c1cc2c(-c3cc(N4CCCCS4(=O)=O)ccc3Oc3ccc(F)cc3F)cn(C)c(=O)c2[nH]1', 'log10(AUC(0-t))', 1.26),
  ('CCS(=O)(=O)Nc1ccc(Oc2ccc(F)cc2F)c(-c2cn(C)c(=O)c3[nH]ccc23)c1 [Compound 2, reference compound]', 'log10(AUC(0-t))', 3.31),
  ('CCNC(=O)c1cc2c(-c3cc(N4CCCS4(=O)=O)ccc3Oc3ccc(F)cc3F)cn(C)c(=O)c2[nH]1', 'log10(AUC(0-t))', 1.00);
